Study target: hTLR7 (Homo sapiens, UniProt Q9NYK1)
Construct: host or cells: HEK-Blue hTLR7 (HEK293-derived reporter cells with SEAP read-out)
Sequence (Q9NYK1 27-1049): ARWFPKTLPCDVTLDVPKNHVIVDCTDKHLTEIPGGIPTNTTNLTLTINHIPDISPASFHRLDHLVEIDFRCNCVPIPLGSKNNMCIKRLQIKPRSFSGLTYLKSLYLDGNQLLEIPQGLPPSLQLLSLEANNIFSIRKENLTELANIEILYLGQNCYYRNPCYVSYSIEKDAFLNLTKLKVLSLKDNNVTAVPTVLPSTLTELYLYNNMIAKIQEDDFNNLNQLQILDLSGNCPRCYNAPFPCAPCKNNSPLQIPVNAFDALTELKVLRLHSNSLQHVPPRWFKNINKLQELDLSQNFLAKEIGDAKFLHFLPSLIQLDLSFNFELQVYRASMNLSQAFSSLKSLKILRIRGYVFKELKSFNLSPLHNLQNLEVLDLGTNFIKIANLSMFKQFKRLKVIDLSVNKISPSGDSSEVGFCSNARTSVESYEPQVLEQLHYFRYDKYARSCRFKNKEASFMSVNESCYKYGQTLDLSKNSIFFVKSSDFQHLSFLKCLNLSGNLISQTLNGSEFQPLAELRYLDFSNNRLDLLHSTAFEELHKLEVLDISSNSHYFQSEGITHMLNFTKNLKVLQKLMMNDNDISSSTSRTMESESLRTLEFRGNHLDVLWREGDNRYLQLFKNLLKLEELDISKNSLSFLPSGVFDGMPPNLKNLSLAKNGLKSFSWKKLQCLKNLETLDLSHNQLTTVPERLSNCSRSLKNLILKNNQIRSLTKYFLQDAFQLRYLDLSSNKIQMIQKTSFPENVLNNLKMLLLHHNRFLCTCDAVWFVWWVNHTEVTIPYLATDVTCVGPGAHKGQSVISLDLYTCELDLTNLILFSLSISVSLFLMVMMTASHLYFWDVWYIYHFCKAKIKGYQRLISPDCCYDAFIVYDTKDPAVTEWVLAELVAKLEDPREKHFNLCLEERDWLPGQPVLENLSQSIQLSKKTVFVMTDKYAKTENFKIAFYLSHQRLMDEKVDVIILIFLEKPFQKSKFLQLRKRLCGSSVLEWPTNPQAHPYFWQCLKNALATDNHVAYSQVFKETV
Assay explanation: EC50 assay for small molecule agonists, HEK-Blue hTLR7 cells, SEAP readout
Format: cell-based
Test parameters: agonist activity, nd = EC50 larger than 25 μM
The following compounds are listed with their measured EC50 values.

Solved cases (8 shown):
{"columns": ["Smiles record", "Study target", "EC50"],
 "data": [
  ["CCCCCc1cc(Cc2ccccc2CN(C)C)c(C)nc1N", "hTLR7 (Homo sapiens, UniProt Q9NYK1)", "> 25 µM"],
  ["CCCCCc1cc(Cc2ccc(CN(C)C)cc2F)c(C)nc1N", "hTLR7 (Homo sapiens, UniProt Q9NYK1)", "> 25 µM"],
  ["CCCCCc1cc(Cc2ccc(CN(C)CC(=O)O)cc2)c(C)nc1N", "hTLR7 (Homo sapiens, UniProt Q9NYK1)", "> 25 µM"],
  ["CCCCCc1cc(Cc2ccc(C(=O)N3CCCC3)cc2)c(C)nc1N", "hTLR7 (Homo sapiens, UniProt Q9NYK1)", "> 25 µM"],
  ["CCCCCc1cc2nc(Cc3ccc(CN(C)C)cc3)ccc2nc1N", "hTLR7 (Homo sapiens, UniProt Q9NYK1)", "> 25 µM"],
  ["COCCCc1cc(Cc2ccc(CN3CCN(C)CC3)cc2)c(C)nc1N", "hTLR7 (Homo sapiens, UniProt Q9NYK1)", "> 25 µM"],
  ["CCCCCc1cc(Cc2ccc(CN3CCC3)cc2)c(C)nc1N", "hTLR7 (Homo sapiens, UniProt Q9NYK1)", "> 25 µM"],
  ["CCCCCc1cc(CCc2ccc(CN(C)C)cc2)c(C)nc1N", "hTLR7 (Homo sapiens, UniProt Q9NYK1)", "> 25 µM"]
]}

**Query** I have this compound here, CCCCCc1cc(Cc2ccc(CN(C)C)cc2OC(C)=O)c(C)nc1N , and I need its recorded EC50.
**Result** > 25 µM

**Query** I have this compound here, CCCCCc1cc(Cc2ccc(CN3CCCCCC3)cc2)c(C)nc1N , and I need its recorded EC50.
**Result** > 25 µM

**Query** I have this compound here, CCCCCc1cc(Cc2ccc(CN(C)C)cc2O)c(C)nc1N , and I need its recorded EC50.
**Result** > 25 µM
